Data origin: PubChem BioAssay AID1259422

- Method description: TEAD-YAP interaction inhibition, primary screen, TEAD-YAP interaction inhibitor project, luminescence, HEK-TIYL cells (AID 1259422)
- Conditions: TEAD-Gal4/YAP UAS-luciferase luminescence, at 9.12 µM
In all, about 640,000 compounds went through this assay and about 9,300 (1.5%) were called active. Rule as the data show it: active = inhibition above about 32%; inactive = the rest. The sample as a whole holds a higher share of actives than the screen did.
Classes used: active, inactive

| Molecule | Assigned class |
| --- | --- |
| O=c1c2c(nc3n1CCCCC3)sc1c(O)cccc12 | active |
| Cc1c(CN2CCCC(CNC(=O)c3ccc4c(c3)OCO4)C2)[nH]c2ccccc12 (stereo not drawn) | inactive |
| COc1cc2cc(C)c3nnc(SCC(=O)NC(C)(C)C)n3c2cc1OC | inactive |
| CC(C)(C)NCC(O)COc1c(Br)ccc2c1sc1nc3n(c(=O)c12)CCCCC3 (stereo not drawn) | inactive |
| CC(=O)N(c1cccc(C)c1)C1SC(=O)N(c2cccc(C)c2)C1=O (stereo not drawn) | inactive |
| Cc1ccc(-c2ncn(-c3ccc(Nc4nccc(-c5cc(C#N)cc(N6CCCC(O)C6)c5)n4)cc3)n2)cn1 (stereo not drawn) | inactive |
| COc1ccc(-n2ncc3c(N4CCCC(C)C4)ncnc32)cc1 (stereo not drawn) | active |
| Fc1ccc(Nc2ncnc3c2cnn3-c2ccccc2)cc1 | inactive |
| CCS(=O)(=O)c1ncc(Cl)c(C(=O)Nc2ccc(OC(F)F)cc2)n1 | inactive |
| CCCn1c(NCCO)nc2c1c(=O)n(C)c(=O)n2C | inactive |
| Cc1ccc(-c2nc3cc(C(C)C)ccc3o2)cc1N | active |
| c1ccc(-n2ncc3c(N4CCCC4)ncnc32)cc1 | active |
| CC1CCCC(NC(=O)C(C)n2c(=O)c3cccn3c3cccnc32)C1C (stereo not drawn) | inactive |
| O=C(CCc1ccccc1)NCCn1ncc2c(N3CCN(c4ncccn4)CC3)ncnc21 | inactive |
| O=C(NCC1CCCN(Cc2nc(-c3ccccc3)cs2)C1)c1cccs1 (stereo not drawn) | inactive |
| CC(=O)Nc1cc(-c2nc3cc(C(C)C)ccc3o2)ccc1Cl | inactive |
| CCc1ccc2oc(-c3ccc(NC(=O)c4ccccc4[N+](=O)[O-])cc3)nc2c1 | inactive |
| Cc1[nH]ncc1-c1ccc2nc(NC(=O)C3COc4ccccc4C3)sc2c1 (stereo not drawn) | active |
| COc1ccc(CN2CCN(Cc3cccnc3)CC2)cc1OCc1ccccc1 | inactive |
| Cc1ccc(N2CCN(c3ncnc4c3cnn4-c3ccccc3)CC2C)cc1 (stereo not drawn) | inactive |
| CCOc1ccc(-n2cc(-c3ccccc3)c3c(N4CCCC(C)C4)ncnc32)cc1 (stereo not drawn) | inactive |
| CCOC(=O)C1CCN(c2nc(-c3cccnc3)nc3c2CN(S(C)(=O)=O)CC3)CC1 | inactive |
| Cc1c(C2=N/C(=C/c3cccc(Cl)c3Cl)C(=O)O2)cccc1[N+](=O)[O-] | inactive |
| c1ccc(-n2ncc3c(Oc4cccc5cccnc45)ncnc32)cc1 | active |
| Oc1c(CN2CCN(c3cccc(Cl)c3)CC2)cc(Br)c2cccnc12 | inactive |
| CCc1ccc(-c2nc3cc(NC(=O)c4ccc(Cl)cc4)ccc3o2)cc1 | inactive |
| Oc1c(CN2CCCC2)cc(COCc2ccccc2)c2cccnc12 | active |
| CCOC(=O)c1c(C)[nH]c(C(=O)OCC(=O)Nc2ccccc2C(C)(C)C)c1C | inactive |
